Source listed as patent US10654896B2.

- protocol: Human liver microsomal stability
- Format: in vitro ADME
- assayConditions: human liver microsomes, peptide 1 μM; read-out: t1/2
- Procedure: The data collected were analyzed to calculate a half-life (t1/2, min) for tested peptides at a final concentration of 1 μM. Briefly, 5 μL of stock solution of tested peptide (10 mM) were diluted in 495 μL of 1:1 Methanol/Water (final concentration of 100 μM, 50% MeOH). Then, 50 μL of this intermediate solution were diluted in 450 μL of 100 mM potassium phosphate buffer to a concentration of 10 μM (working solution, 5% MeOH). […]
Where a SMILES comes first, the peptide text is derived from it.
assayMetric: half-life (min)

[[record]]
compound = "CSCC[C@@H]1NC(=O)[C@H](C)NC(=O)[C@H](Cc2ccccc2)NC(=O)[C@H](Cc2ccccc2)NC(=O)[C@@H]2CCCN2C(=O)[C@H](Cc2c[nH]c3ccccc23)NC(=O)[C@H](CCSC)NC(=O)[C@H](CCCCN)NC(=O)[C@H](CCCNC(=N)N)NC(=O)[C@H](Cc2ccccc2)NC(=O)[C@H](C)NC(=O)[C@H](CCC(N)=O)NC(=O)[C@H](Cc2ccccc2)NC(=O)[C@H](C)NC(=O)[C@H](CCCNC(=N)N)NC1=O [compound 50] (cyclo(RAFQAFRKMWPFFAM))"
unitssymbol = "min"
endpointvalue = 5.3


###

- protocol: Mouse liver microsomal stability
- Type: in vitro ADME
- assayConditions: mouse liver microsomes, 60 min; read-out: % Remaining after 60 min
Where no end group is shown, it is not given here.
assayMetric: remaining at 1 h, 1 μM (%)

[[record]]
sequencecontent = "RDFQSFRKMWPFFAM [SEQ ID NO: 1, RDFQSFRKMWPFFAM, reference compound]"
endpointvalue = 0


###

- protocol: Mouse liver microsomal stability
- Format: in vitro ADME
- assayConditions: mouse liver microsomes, peptide 1 μM
Where no end group is shown, it is not given here.
assayMetric: half-life

[[record]]
sequencecontent = "RDFQSFRKMWPFFAM [SEQ ID NO: 1, RDFQSFRKMWPFFAM, reference compound]"
assaymetric = "half-life"
endpointvalue = "< 2.5 min"


###

- protocol: Mouse liver microsomal stability
- Format: in vitro ADME
- assayConditions: mouse liver microsomes, 20 min; read-out: % Remaining after 20 min
- Description: The data collected were analyzed to calculate a half-life (t1/2, min) for tested peptides at a final concentration of 1 μM. Briefly, 5 μL of stock solution of tested peptide (10 mM) were diluted in 495 μL of 1:1 Methanol/Water (final concentration of 100 μM, 50% MeOH). Then, 50 μL of this intermediate solution were diluted in 450 μL of 100 mM potassium phosphate buffer to a concentration of 10 μM (working solution, 5% MeOH). […]
Where no end group is shown, it is not given here.
assayMetric: remaining at 20 min, 1 μM (%)

[[record]]
sequencecontent = "RDFQSFRKMWPFFAM [SEQ ID NO: 1, RDFQSFRKMWPFFAM, reference compound]"
endpointvalue = 0


###

- measurementTarget: human FOXP3 (FOXP3-6His) (Homo sapiens, UniProt Q9BZS1)
- Construct: 6xHis (C); made in house; host or cells: E. coli BL21 (DE3)
- Sequence (Q9BZS1 1-431): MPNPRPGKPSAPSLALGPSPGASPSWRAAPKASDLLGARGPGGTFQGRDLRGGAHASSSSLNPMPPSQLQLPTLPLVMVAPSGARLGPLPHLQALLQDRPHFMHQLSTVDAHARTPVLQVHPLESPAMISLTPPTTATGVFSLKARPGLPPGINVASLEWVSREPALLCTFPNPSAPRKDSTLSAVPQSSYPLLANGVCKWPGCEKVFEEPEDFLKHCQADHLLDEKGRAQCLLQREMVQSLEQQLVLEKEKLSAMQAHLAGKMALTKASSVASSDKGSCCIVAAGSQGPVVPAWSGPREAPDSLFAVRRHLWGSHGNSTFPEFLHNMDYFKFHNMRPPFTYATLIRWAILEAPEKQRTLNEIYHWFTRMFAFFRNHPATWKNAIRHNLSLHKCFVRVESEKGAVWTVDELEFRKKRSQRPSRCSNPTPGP
- protocol: Peptide binding to FOXP3 by surface plasmon resonance (SPR)
- assayConditions: peptides 1-20 μM; ratio to p60 (SEQ ID NO: 1)
- Text: Plasmid pET20b FOXP3-His was generated to produce the human FOXP3 tagged with 6 histidines at the C terminus of the protein. […] The eluted proteins were desalted using Hitrap desalting columns (Pharmacia) and analyzed by SDS-PAGE using Coomassie blue (Bio-Safe Coomassie reagent; Bio-Rad, Hercules, Calif.) and by Western blot. […]
Where no end group is shown, it is not given here. [ ]: non-standard residue; d: D form.
# note: exactly 3 fold change is not below, so it is -1; use 1 for Binding to Foxp3 Ratio binding Peptide/p60 (fold change) strictly under it

[[record]]
substance = "42 (H-RAFQAFRKMWPFFAM-OH) [compound 42]"
measurementtarget = "human FOXP3 (FOXP3-6His) (Homo sapiens, UniProt Q9BZS1)"
classname = -1

[[record]]
substance = "39 (RDFQ[dA]FRKMWPFFAM-NH2; not fully specified (N-terminus)) [compound 39]"
measurementtarget = "human FOXP3 (FOXP3-6His) (Homo sapiens, UniProt Q9BZS1)"
classname = -1

[[record]]
substance = "22 (RDFQWFRKMWPFFAM) [compound 22]"
measurementtarget = "human FOXP3 (FOXP3-6His) (Homo sapiens, UniProt Q9BZS1)"
classname = 1

[[record]]
substance = "23 (RDFQEFRKMWPFFAM) [compound 23]"
measurementtarget = "human FOXP3 (FOXP3-6His) (Homo sapiens, UniProt Q9BZS1)"
classname = 1

[[record]]
substance = "9 (RWFQSFRKMWPFFAM) [compound 9]"
measurementtarget = "human FOXP3 (FOXP3-6His) (Homo sapiens, UniProt Q9BZS1)"
classname = 1

[[record]]
substance = "17 (RDYQSFRKMWPFFAM) [compound 17]"
measurementtarget = "human FOXP3 (FOXP3-6His) (Homo sapiens, UniProt Q9BZS1)"
classname = -1

